Cited source: ChEMBL document CHEMBL1148638

# target desc: Mitogen-activated protein kinase 8 (Homo sapiens, UniProt P45983)
# Sequence (P45983 whole entry): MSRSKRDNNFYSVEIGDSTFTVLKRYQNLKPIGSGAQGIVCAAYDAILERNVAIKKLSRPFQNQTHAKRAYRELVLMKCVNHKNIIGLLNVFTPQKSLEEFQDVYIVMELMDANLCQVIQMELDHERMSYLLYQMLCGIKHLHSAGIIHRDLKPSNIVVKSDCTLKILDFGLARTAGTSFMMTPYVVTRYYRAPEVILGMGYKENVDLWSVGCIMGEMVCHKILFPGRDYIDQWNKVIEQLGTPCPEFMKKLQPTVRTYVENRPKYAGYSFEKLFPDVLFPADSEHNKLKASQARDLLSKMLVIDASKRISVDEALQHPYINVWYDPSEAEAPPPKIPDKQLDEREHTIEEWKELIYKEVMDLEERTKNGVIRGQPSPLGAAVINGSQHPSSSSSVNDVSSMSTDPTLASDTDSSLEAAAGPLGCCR
# assay info: Inhibition of JNK1-mediated ATF2 phosphorylation
measurement name: IC50 (nM)
Could you give me the number in nM? Just the number is fine.

Known results for compounds:
{"compound smiles": "CC(=O)Nc1cc(N)c(C#N)c(NC(C)C)n1", "measurement name": "IC50", "value reported": 910}
{"compound smiles": "CCOc1nc(NC(=O)CN2CCCCC2)cc(N)c1C#N", "measurement name": "IC50", "value reported": 510}
{"compound smiles": "COCCOc1nc(NC(=O)Cc2cc(OC)ccc2OC)cc(N)c1C#N", "measurement name": "IC50", "value reported": 110}
{"compound smiles": "CCOc1nc(NC(=O)Cc2ccccc2OC)cc(N)c1C#N", "measurement name": "IC50", "value reported": 120}
{"compound smiles": "CCOc1nc(NC(=O)CC(C)C)cc(N)c1C#N", "measurement name": "IC50", "value reported": 1400}
{"compound smiles": "CCOc1nc(NC(=O)Cc2ccccc2Cl)cc(N)c1C#N", "measurement name": "IC50", "value reported": 1100}
{"compound smiles": "CC(=O)Nc1cc(N)c(C#N)c(OCCC(=O)O)n1", "measurement name": "IC50", "value reported": 4800}
{"compound smiles": "CCOc1nc(NC(=O)Cc2ccccc2C)cc(N)c1C#N", "measurement name": "IC50", "value reported": 400}
{"compound smiles": "COc1ccc(OC)c(CC(=O)Nc2cc(N)c(C#N)c(Br)n2)c1", "measurement name": "IC50", "value reported": 1700}

// output IC50; input `CCCCOc1nc(NC(C)=O)cc(N)c1C#N` ; system Mitogen-activated protein kinase 8 (Homo sapiens, UniProt P45983)
2100

----------
# assay info: AUC in po dosed Sprague-Dawley rat
# Format: ADME, organism-based
# settings: plasma
measurement name: AUC (µg·h/mL)
Could you give me the number in µg·h/mL? Just the number is fine.

Known results for compounds:
{"compound smiles": "CCOc1nc(NC(=O)Cc2cc(OC)ccc2OC)cc(N)c1C#N", "AUC, µg·h/mL": 0.11}
{"compound smiles": "CCOc1nc(NC(=O)Cc2cc(OC)c(S(C)(=O)=O)cc2OC)cc(N)c1Cl", "AUC, µg·h/mL": 1.5}
{"compound smiles": "COc1cc(S(C)(=O)=O)c(OC)cc1CC(=O)Nc1cc(N)c(C#N)c(OC(C)C)n1", "AUC, µg·h/mL": 0.12}

Tell me AUC reported for `CCOc1nc(NC(=O)Cc2cc(OC)c(S(C)(=O)=O)cc2OC)cc(N)c1C#N`
1.1

----------
Form field: Cmax (one value per entry).
# assay info: Cmax in po dosed Sprague-Dawley rat
# Type: ADME, organism-based
# Parameters: route oral
# settings: in vivo
Could you give me the number in nM? Just the number is fine.

{"compound smiles": "CCOc1nc(NC(=O)Cc2cc(OC)ccc2OC)cc(N)c1C#N", "Cmax, nM": 310}
{"compound smiles": "CCOc1nc(NC(=O)Cc2cc(OC)c(S(C)(=O)=O)cc2OC)cc(N)c1Cl", "Cmax, nM": 1420}
{"compound smiles": "COc1cc(S(C)(=O)=O)c(OC)cc1CC(=O)Nc1cc(N)c(C#N)c(OC(C)C)n1", "Cmax, nM": 80}

Read the next record carefully.
Tell me Cmax reported for `CCOc1nc(NC(=O)Cc2cc(OC)c(S(C)(=O)=O)cc2OC)cc(N)c1C#N`
1360
